meta.source: PubChem BioAssay (NCATS)

- measurement-description: qHTS profiling for inhibitors of Plasmodium falciparum (3D7) proliferation (AID 743322);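 further: infected erythrocytes exposed to compound for 72 h before lysis; 100% = DMSO vehicle wells and 0% = 0.29 µM artemisinin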
- conditions-used: P. falciparum 3D7 proliferation; at 28.7 µM (top of the series) unless noted
Assignment: determine reported remaining parasite growth % (stronger effect = lower value) for the given compounds.
Hi! Could you send only the number? It should be in %, unit omitted.

Name the reported remaining parasite growth % (stronger effect = lower value) value associated with the compound Nc1ncn([C@@H]2O[C@H](CO)[C@@H](O)[C@H]2O)c(=O)n1 103

So what does the record say about remaining parasite growth % (stronger effect = lower value) for CN1C[C@H](C(=O)N[C@]2(C)O[C@@]3(O)[C@@H]4CCCN4C(=O)[C@H](Cc4ccccc4)N3C2=O)C[C@@H]2c3cccc4[nH]cc(c34)C[C@H]21 ? -0.39

###

- measured-target: M-phase phosphoprotein 8 (Homo sapiens) (UniProt Q99549)
- Sequence (Q99549 whole entry, looked up): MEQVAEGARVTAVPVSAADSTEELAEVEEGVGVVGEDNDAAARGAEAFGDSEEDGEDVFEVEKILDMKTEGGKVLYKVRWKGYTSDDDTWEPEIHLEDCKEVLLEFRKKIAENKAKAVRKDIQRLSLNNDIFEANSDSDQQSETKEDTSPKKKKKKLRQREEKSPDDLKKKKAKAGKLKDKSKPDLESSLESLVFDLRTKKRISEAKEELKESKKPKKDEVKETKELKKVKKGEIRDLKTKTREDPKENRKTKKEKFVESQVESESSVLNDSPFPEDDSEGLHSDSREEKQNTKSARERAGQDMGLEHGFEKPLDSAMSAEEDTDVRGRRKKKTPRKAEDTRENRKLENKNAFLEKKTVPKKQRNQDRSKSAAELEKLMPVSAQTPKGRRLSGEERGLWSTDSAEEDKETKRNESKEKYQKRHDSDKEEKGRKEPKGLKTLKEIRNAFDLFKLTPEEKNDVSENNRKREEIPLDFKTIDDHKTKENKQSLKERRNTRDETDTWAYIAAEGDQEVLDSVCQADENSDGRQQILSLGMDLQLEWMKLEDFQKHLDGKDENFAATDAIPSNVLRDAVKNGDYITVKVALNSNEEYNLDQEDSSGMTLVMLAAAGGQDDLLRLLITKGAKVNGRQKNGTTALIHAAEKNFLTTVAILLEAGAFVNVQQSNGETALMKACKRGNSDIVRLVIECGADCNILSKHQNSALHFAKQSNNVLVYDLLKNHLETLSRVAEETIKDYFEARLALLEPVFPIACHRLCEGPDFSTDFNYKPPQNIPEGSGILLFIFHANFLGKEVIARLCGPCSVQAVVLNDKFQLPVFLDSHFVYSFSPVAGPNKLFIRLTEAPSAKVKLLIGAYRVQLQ
- measurement-description: qHTS Validation Assay for Inhibitors for MPP8 Chromodomain Interactions with Methylated Histone Tails (AID 488949); further: nearly all actives have a fitted effect of over 55% in size; further: potency means the concentration at half of the fitted maximal effect
- conditions-used: AlphaScreen MPP8 binding to H3K9me3 peptide; series mostly up to 57.1 µM
Results filed as inconclusive are left out. Calls of active or inactive are those of the source. Calls come from the whole dose curve; as a rule, active = well fitted inhibition curve with a large enough effect; inconclusive = small, poorly fitted or top-dose-only effect; inactive = no such curve, though single readings can be large or run the other way.
parameter-measured: Potency

Worked cases, Potency given:
>  <molecule-smiles>
O=C1NCN(c2ccccc2)C12CCN(CCCC(c1ccc(F)cc1)c1ccc(F)cc1)CC2

>  <measured-target>
M-phase phosphoprotein 8 (Homo sapiens) (UniProt Q99549)

>  <assay-value>
14.1 µM (active)

$$$$
>  <molecule-smiles>
O=C1CC2(CCCC2)CC(=O)N1CCCCN1CCN(c2ncccn2)CC1

>  <measured-target>
M-phase phosphoprotein 8 (Homo sapiens) (UniProt Q99549)

>  <assay-value>
inactive

$$$$
>  <molecule-smiles>
CCCOc1ccccc1-c1nc2n[nH]nc2c(=O)[nH]1

>  <measured-target>
M-phase phosphoprotein 8 (Homo sapiens) (UniProt Q99549)

>  <assay-value>
inactive

$$$$
>  <molecule-smiles>
C[C@@H](O)[C@H]1C(=O)N2C(C(=O)O)=C(SCCN=CN)C[C@H]12

>  <measured-target>
M-phase phosphoprotein 8 (Homo sapiens) (UniProt Q99549)

>  <assay-value>
inactive

$$$$

Query compound follows.
Fill blank: measured Potency of the compound CC(C)[N+](C)(CCOC(=O)C1c2ccccc2Oc2ccccc21)C(C)C is ____. inactive

###

- measurement-description: Cell Viability - LYMP2-023 (AID 975);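 further: cellular ATP measured by luciferase luminescence as viability proxy; cells exposed to compound for 24 hours at 37 °C; plate controls were DMSO only for no effect and 92 µM tetraoctylammonium bromide control for full effect; nearly all actives have a fitted effect of over 55% in size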
- conditions-used: LYMP2-023 lymphoblastoid cell viability; series mostly up to 92.2 µM
Records with an inconclusive call do not appear. Active and inactive are the calls of the source. Calls follow the shape of the dose curve; as a rule, active = well fitted cell-killing curve with a large enough effect; inconclusive = small, poorly fitted or top-dose-only effect; inactive = flat fitted curve, though single readings scatter.

>  <molecule-smiles>
COc1cc(Cc2cnc(N)nc2N)cc(OC)c1OC

>  <outcome>
inactive

$$$$
>  <molecule-smiles>
CN=C(NC#N)NCCSCc1nc[nH]c1C

>  <outcome>
inactive

$$$$
>  <molecule-smiles>
Nc1nc(N)c2nc(-c3ccccc3)c(N)nc2n1

>  <outcome>
inactive

$$$$
>  <molecule-smiles>
NC(=O)N1c2ccccc2C=Cc2ccccc21

>  <outcome>
inactive

$$$$

###

- measured-target: Cytochrome P450 2C19 (Homo sapiens) (UniProt P33261)
- Sequence (P33261 whole entry, looked up): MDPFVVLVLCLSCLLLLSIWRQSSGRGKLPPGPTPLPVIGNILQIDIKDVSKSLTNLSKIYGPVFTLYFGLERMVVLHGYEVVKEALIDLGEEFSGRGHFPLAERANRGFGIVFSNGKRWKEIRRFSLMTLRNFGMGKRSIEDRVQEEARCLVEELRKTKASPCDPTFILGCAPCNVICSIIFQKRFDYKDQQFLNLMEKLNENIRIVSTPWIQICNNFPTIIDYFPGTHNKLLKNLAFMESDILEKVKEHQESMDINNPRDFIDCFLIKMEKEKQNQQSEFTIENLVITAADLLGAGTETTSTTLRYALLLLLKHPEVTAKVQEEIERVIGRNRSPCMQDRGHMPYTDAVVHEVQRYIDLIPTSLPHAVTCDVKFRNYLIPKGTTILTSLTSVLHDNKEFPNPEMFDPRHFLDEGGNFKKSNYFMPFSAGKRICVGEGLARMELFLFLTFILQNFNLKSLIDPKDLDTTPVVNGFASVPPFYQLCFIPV
- measurement-description: qHTS Assay for Inhibitors and Substrates of Cytochrome P450 2C19 (AID 899); further: nearly all actives have a fitted effect of over 60% in size; further: potency means the concentration at half of the fitted maximal effect
- conditions-used: recombinant CYP2C19, luciferin-H EGE luminescence; series mostly up to 57.1 µM
Results filed as inconclusive are left out. Activity calls are given as the source filed them. Calls come from the whole dose curve; as a rule, active = well fitted inhibition curve with a large enough effect; inconclusive = small, poorly fitted or top-dose-only effect; inactive = no such curve, though single readings can be large or run the other way.
parameter-measured: Potency

>  <molecule-smiles>
C[C@H](CS)C(=O)N1CCC[C@H]1C(=O)O

>  <measured-target>
Cytochrome P450 2C19 (Homo sapiens) (UniProt P33261)

>  <assay-value>
inactive

$$$$
>  <molecule-smiles>
CN(C(=O)CCCOc1ccc2[nH]c(=O)ccc2c1)C1CCCCC1

>  <measured-target>
Cytochrome P450 2C19 (Homo sapiens) (UniProt P33261)

>  <assay-value>
inactive

$$$$
>  <molecule-smiles>
NC(=O)N1c2ccccc2C=Cc2ccccc21

>  <measured-target>
Cytochrome P450 2C19 (Homo sapiens) (UniProt P33261)

>  <assay-value>
inactive

$$$$
>  <molecule-smiles>
Brc1c(NC2=NCCN2)ccc2nccnc12

>  <measured-target>
Cytochrome P450 2C19 (Homo sapiens) (UniProt P33261)

>  <assay-value>
inactive

$$$$

Query (compound): CN(C)CCOC(=O)COc1ccc(Cl)cc1 ; field requested: Potency inactive

What measured Potency goes with CCO/C([O-])=N/c1c[n+](N2CCOCC2)no1 ? inactive

What value of Potency has been recorded for this entry: NC(N)=NC(=O)Cc1c(Cl)cccc1Cl 0.251 µM (active)

Fill in the blank: the reported Potency of O=C(CCNNC(=O)c1ccncc1)NCc1ccccc1 is ____. inactive

Fill blank: measured Potency of the compound C[n+]1cc2c3c(ccc2c2ccc4cc5c(cc4c21)OCO5)OCO3 is ____. 6.31 µM (active)
